Overview of recorded Size of Clearance of Zone for various molecules
- Test system: E. faecalis DSM13591
- experimental-details: Disk diffusion assay, multidrug resistant clinical isolate
- Format: cell-based
- assay-context: antibiotic disk 10 μg
- Experimental: The activity of test compounds against multi-drug resistant bacterial strains was assessed by the disk diffusion assay; a standardised method to assess for the antimicrobial susceptibility of microorganisms (adapted from EUCAST, Version 5, January 2015). […] A panel of standard antibiotics disks (Sigma) were used to control for the antimicrobial resistance profile of the individual strains (quantity as indicated in the table). […]
Number only, in mm; omit the unit.

# compound, Size of Clearance of Zone / mm
rows = [
    ("CC(=O)NC[C@H]1CN(c2ccc(N3CCOCC3)c(F)c2)C(=O)O1", 22),
    ("C[C@@H](O)[C@H]1C(=O)N2C(C(=O)O)=C(S[C@@H]3CN[C@H](C(=O)N(C)C)C3)[C@H](C)[C@H]12", 17),
]

Query: Size of Clearance of Zone lookup needed for C[C@@H](O)[C@H]1C(=O)N2C(C(=O)O)=C(S[C@@H]3CN[C@H](C(=O)Nc4cccc(C(=O)O)c4)C3)[C@H](C)[C@H]12 , thanks.
Reply: 14

Query: Proceed to C[C@@H](O)[C@H]1C(=O)N2C(C(=O)O)=C(SCCN=CN)C[C@H]12
Reply: 26

* * *

Overview of recorded HepG2 cell TD50 for various compounds
- Test system: human hepatocyte cell line (HepG2)
- experimental-details: HepG2 cell inhibition assay (CCK-8 viability)
- Assay type: cell-based
- assay-context: 50% growth inhibition vs untreated control, 24 hours
Number only, in µg/mL; omit the unit.

# compound, HepG2 cell TD50 / µg/mL
records = [
    ("C[P](C)(C)=[Au][n]1ccnc1C(F)(F)F [Compound 48]", 4),
    ("C[P](C)(C)=[Au][N]1C(=O)c2ccccc2C1=O [Compound 10]", 15),
]

Query: HepG2 cell TD50 lookup needed for CN1CC[N]([Au]=[P](C)(C)C)C1=O [Compound 5] , thanks.
Reply: 6

Query: Proceed to C[P](C)(C)=[Au][N]1C(=O)CCC1=O [Compound 7]
Reply: 11

Query: Proceed to C[P](C)(C)=[Au][N]1C(=O)COCC1=O [Compound 8]
Reply: 9

* * *

- System: human hepatocyte cell line (HepG2)
- experimental-details: HepG2 cell inhibition assay (CCK-8 viability)
- Format: cell-based
- assay-context: 50% growth inhibition vs untreated control, 24 hours
measured-property: HepG2 cell TD50
Respond with the figure and its unit, in that order.

# compound, HepG2 cell TD50
rows = [
    ("C[P](C)(C)=[Au][N]1CCCCS1(=O)=O", "3 µg/mL"),
    ("C[P](C)(C)=[Au][N]1CCCC1=O", "3 µg/mL"),
    ("COc1ccc2c(c1)nc[n]2[Au]=[P](C)(C)C", "9 µg/mL"),
    ("CC1(C)OC(=O)[N]([Au]=[P](C)(C)C)C1=O", "3 µg/mL"),
    ("C[P](C)(C)=[Au][n]1cnnn1", "6 µg/mL"),
]

Query: Checklist item: HepG2 cell TD50 tested on human hepatocyte cell line (HepG2), entry C[P](C)(C)=[Au][N]1C(=O)CCCC1=O , value?
Reply: 7 µg/mL

Query: Proceed to C[P](C)(C)=[Au][N]1CCOC1=O
Reply: 7 µg/mL

Query: Proceed to C[P](C)(C)=[Au][n]1cnc2cccnc21
Reply: 3 µg/mL

Query: Proceed to C[P](C)(C)=[Au][N]1CCOCC1=O
Reply: 4 µg/mL

Query: Proceed to C[P](C)(C)=[Au][n]1ncc2cccnc21
Reply: 5 µg/mL

* * *

Overview of recorded HepG2 cell TD50 for various compounds
- Tested on: human hepatocyte cell line (HepG2)
- experimental-details: HepG2 cell inhibition assay (CCK-8 viability)
- Type: cell-based
- assay-context: 50% growth inhibition vs untreated control, 24 hours
- Description: Cell counting kit-8 (Sigma, CCK-8) assays were performed to assess the effect of compounds on cell viability. The assay is based on the reduction of a water-soluble tetrazolium salt (WST-8) by cellular dehydrogenases to a formazan dye which can be detected spectroscopically. […] After 24 hours CCK-8 reagent (10 μl) was added to each well and cell viability was assessed by measuring the absorbance at a wavelength of 450 nm after 2-3 h hours. […]
Number only, in µg/mL; omit the unit.

Field: example entries. Status: answers known.
# compound, test-target, measured-property, value-measured
measured = [
    ("C[P](C)(C)=[Au][N]1CCN(c2ccc(F)cc2)C1=O [Compound 27]", "human hepatocyte cell line (HepG2)", "HepG2 cell TD50", 4),
    ("CN1C(=O)[N]([Au]=[P](C)(C)C)C(=O)C1(C)C [Compound 17]", "human hepatocyte cell line (HepG2)", "HepG2 cell TD50", 8),
    ("CC[N]([Au]=[P](C)(C)C)C(C)=O [Compound 4]", "human hepatocyte cell line (HepG2)", "HepG2 cell TD50", 7),
    ("C[P](C)(C)=[Au][N]1C(=O)C2CCCN2C1=O (centres unmarked) [Compound 15]", "human hepatocyte cell line (HepG2)", "HepG2 cell TD50", 3),
    ("CN1C(=O)[N]([Au]=[P](C)(C)C)C(=O)C12CCCC2 [Compound 19]", "human hepatocyte cell line (HepG2)", "HepG2 cell TD50", 13),
]

Query: Checklist item: HepG2 cell TD50 tested on human hepatocyte cell line (HepG2), entry C[P](C)(C)=[Au][N]1CCCS1(=O)=O [Compound 28] , value?
Reply: 9

Query: Proceed to C[P](C)(C)=[Au][N]1CCCOC1=O [Compound 18]
Reply: 5

Query: Proceed to C[P](C)(C)=[Au][n]1cnc2ccccc21 [Compound 44]
Reply: 5

Query: Proceed to C[P](C)(C)=[Au][N]1CCCCC1=O [Compound 2]
Reply: 3

Query: Proceed to C[P](C)(C)=[Au][n]1ccn(-c2ccccc2)c1=O [Compound 25]
Reply: 5

Query: Proceed to COc1ccc(N2CC[N]([Au]=[P](C)(C)C)C2=O)cc1 [Compound 26]
Reply: 6

Query: Proceed to C[P](C)(C)=[Au][N]1C(=O)COc2ccccc21 [Compound 12]
Reply: 4

* * *

Overview of recorded HepG2 cell TD50 for various compounds
- Test system: human hepatocyte cell line (HepG2)
- experimental-details: HepG2 cell inhibition assay (CCK-8 viability)
- Assay type: cell-based
- assay-context: 50% growth inhibition vs untreated control, 24 hours
Number only, in µg/mL; omit the unit.

Field: example entries. Status: answers known.
# compound, measured-property, value-measured
records = [
    ("Cc1ncc[n]1[Au]=[P](C)(C)C", "HepG2 cell TD50", 3.9),
    ("C[P](C)(C)=[Au][n]1ccnc1", "HepG2 cell TD50", 4),
]

Query: Checklist item: HepG2 cell TD50 tested on human hepatocyte cell line (HepG2), entry CC1C(=O)[N]([Au]=[P](C)(C)C)C(=O)N1c1ccccc1 (centres unmarked) , value?
Reply: 10

Query: Proceed to C[P](C)(C)=[Au][n]1cnnc1
Reply: 7

Query: Proceed to C[P](C)(C)=[Au][n]1cccn1
Reply: 7.3

Query: Proceed to CC[P](CC)(CC)=[Au][N]1C(=O)c2ccccc2C1=O
Reply: 4

Query: Proceed to C[P](C)(C)=[Au][N]1CCN(c2ccccc2)C1=O
Reply: 9

Query: Proceed to Cc1nnc(C)[n]1[Au]=[P](C)(C)C
Reply: 5

Query: Proceed to C[P](C)(C)=[Au][N]1Cc2ccccc2C1=O
Reply: 2

Query: Proceed to C[P](C)(C)=[Au][n]1ccnn1
Reply: 11.9

Query: Proceed to C[P](C)(C)=[Au][n]1ccccc1=O
Reply: 3

Query: Proceed to C[N]([Au]=[P](C)(C)C)S(=O)(=O)c1ccccc1
Reply: 5

Query: Proceed to COc1ccc2c(cn[n]2[Au]=[P](C)(C)C)c1
Reply: 3

Query: Proceed to C[P](C)(C)=[Au][n]1cc(C(F)(F)F)cn1
Reply: 16

Query: Proceed to Cc1nc2ccccc2[n]1[Au]=[P](C)(C)C
Reply: 5

Query: Proceed to C[N]([Au]=[P](C)(C)C)S(C)(=O)=O
Reply: 4

Query: Proceed to CC[P](CC)(CC)=[Au][N]1CCOCC1=O
Reply: 6
